// data source = patent US12246008B2

biological target: human Nav1.7 channels stably expressed in HEK 293 cells (Homo sapiens); construct: expressed in transfected cells; host or cells: HEK 293; experiment: Qube automated patch-clamp assay, inhibition of sodium current; assay type: cell-based; conditions: holding potential −80 mV; max concentration tested 33750 nM; read-out: NaV1.7 (nM); −80 mV
Sequence (Q15858 whole entry): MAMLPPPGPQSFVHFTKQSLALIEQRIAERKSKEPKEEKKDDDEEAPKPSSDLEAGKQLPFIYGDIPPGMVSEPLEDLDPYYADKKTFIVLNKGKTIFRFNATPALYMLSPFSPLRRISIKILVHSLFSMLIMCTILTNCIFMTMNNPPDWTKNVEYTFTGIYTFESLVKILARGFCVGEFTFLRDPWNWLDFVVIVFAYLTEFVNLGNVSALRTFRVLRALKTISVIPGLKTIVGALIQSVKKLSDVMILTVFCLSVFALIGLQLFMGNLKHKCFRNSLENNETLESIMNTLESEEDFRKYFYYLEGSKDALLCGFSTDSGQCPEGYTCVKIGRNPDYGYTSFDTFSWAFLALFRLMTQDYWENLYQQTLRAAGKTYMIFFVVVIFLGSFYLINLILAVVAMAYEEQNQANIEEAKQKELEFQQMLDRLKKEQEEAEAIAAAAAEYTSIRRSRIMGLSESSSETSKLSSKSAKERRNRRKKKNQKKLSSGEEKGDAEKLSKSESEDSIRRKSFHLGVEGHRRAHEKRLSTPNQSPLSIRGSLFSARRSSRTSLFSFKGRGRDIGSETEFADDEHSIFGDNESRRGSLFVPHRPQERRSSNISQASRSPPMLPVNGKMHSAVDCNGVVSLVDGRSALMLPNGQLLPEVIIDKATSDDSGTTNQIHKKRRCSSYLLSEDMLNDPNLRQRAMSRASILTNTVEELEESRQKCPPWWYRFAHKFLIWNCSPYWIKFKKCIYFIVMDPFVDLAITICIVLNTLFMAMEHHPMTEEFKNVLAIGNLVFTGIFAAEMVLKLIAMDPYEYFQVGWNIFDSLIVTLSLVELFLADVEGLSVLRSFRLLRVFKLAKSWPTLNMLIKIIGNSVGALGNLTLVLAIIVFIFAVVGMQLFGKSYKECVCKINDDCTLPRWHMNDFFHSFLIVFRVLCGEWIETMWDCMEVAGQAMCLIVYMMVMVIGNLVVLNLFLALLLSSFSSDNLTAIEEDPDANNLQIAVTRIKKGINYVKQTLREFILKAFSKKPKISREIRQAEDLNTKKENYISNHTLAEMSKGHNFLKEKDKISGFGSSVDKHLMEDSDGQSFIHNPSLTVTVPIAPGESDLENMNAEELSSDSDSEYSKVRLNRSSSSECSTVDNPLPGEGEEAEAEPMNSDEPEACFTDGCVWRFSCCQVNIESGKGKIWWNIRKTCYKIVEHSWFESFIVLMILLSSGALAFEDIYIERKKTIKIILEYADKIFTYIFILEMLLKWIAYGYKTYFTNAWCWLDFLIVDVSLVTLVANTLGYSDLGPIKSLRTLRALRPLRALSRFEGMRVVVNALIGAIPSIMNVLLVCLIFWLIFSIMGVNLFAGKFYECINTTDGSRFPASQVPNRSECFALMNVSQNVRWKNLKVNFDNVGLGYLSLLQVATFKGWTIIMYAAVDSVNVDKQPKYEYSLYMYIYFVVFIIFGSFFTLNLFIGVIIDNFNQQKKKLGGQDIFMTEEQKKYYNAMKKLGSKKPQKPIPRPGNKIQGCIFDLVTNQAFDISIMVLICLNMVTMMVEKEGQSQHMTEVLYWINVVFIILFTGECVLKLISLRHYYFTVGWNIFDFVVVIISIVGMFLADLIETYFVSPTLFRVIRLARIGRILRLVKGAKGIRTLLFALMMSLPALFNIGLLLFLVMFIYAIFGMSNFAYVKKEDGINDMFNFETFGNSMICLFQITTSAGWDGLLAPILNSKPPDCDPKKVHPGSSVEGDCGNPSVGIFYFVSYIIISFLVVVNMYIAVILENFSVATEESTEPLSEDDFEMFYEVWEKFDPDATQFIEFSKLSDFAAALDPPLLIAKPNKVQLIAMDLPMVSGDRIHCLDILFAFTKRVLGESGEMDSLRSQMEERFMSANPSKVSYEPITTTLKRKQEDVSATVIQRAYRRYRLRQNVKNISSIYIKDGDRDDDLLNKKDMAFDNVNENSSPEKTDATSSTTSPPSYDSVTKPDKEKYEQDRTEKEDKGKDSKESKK
Assay readout: log10(IC50) (log10 of the value in nM)

{"columns": ["Compound", "Subject of test", "log10(IC50)"],
 "data": [
  ["C[C@@H](N)[C@H](CNc1cc(F)c(S(=O)(=O)Nc2ncns2)cc1-c1nccs1)CC(C)(C)CCN [Example 40]", "human Nav1.7 channels stably expressed in HEK 293 cells (Homo sapiens)", 1.23],
  ["C[C@@H](N)C(CNc1cc(F)c(S(=O)(=O)Nc2ncns2)cc1F)CC1NC2CCC1C2 (single isomer, unassigned) [Example 111]", "human Nav1.7 channels stably expressed in HEK 293 cells (Homo sapiens)", 1.81],
  ["C[C@@H](N)C(CNc1cc(F)c(S(=O)(=O)Nc2ncns2)cc1F)CC1CCCCC1CCN (single isomer, unassigned) [Example 63]", "human Nav1.7 channels stably expressed in HEK 293 cells (Homo sapiens)", 2.19],
  ["C[C@@H](N)C(CNc1cc(F)c(S(=O)(=O)Nc2ncns2)cc1F)C[C@]1(C)CCC[C@H]1CN (single isomer, unassigned) [Example 99]", "human Nav1.7 channels stably expressed in HEK 293 cells (Homo sapiens)", 2.65],
  ["C[C@@H](N)[C@@H](CC(C)(C)CCN)C1CCc2cc(S(=O)(=O)Nc3ncns3)c(F)cc2O1 (single isomer, unassigned) [Example 41]", "human Nav1.7 channels stably expressed in HEK 293 cells (Homo sapiens)", 4.14],
  ["C[C@@H](N)C(CNc1cc(F)c(S(=O)(=O)Nc2ncns2)cc1F)CC1CCCCC1CCN (single isomer, unassigned) [Example 61]", "human Nav1.7 channels stably expressed in HEK 293 cells (Homo sapiens)", 1.20],
  ["C[C@@H](N)C(CNc1cc(F)c(S(=O)(=O)Nc2ncns2)cc1F)CC1CCCCC1CCN (single isomer, unassigned) [Example 60]", "human Nav1.7 channels stably expressed in HEK 293 cells (Homo sapiens)", 1.08],
  ["CC[C@@H](N)C(CNc1cc(F)c(S(=O)(=O)Nc2ncns2)c(F)c1F)CC1(CCN)CCC1 (single isomer, unassigned) [Example 22]", "human Nav1.7 channels stably expressed in HEK 293 cells (Homo sapiens)", 1.41]
]}
